Recorded values, source patent US12215106B2.

PROTOCOL NOTES: Plasma pharmacokinetics and brain distribution after single IV, IP and oral administration
Type: in vivo
EXPERIMENTAL CONDITIONS: male, C57BL/6, mouse, in vivo, iv, 2 mg/kg, Mean brain conc.
Counter-ions that a name gives are not always drawn.

MOLECULE | concentration at 3 h (ng/g)
[2H]C([2H])([2H])Oc1ccc(Nc2nc(-c3c(C)nc4ccccn34)cs2)cc1 [Compound 15, hydrochloride] | 27.2
[2H]C1([2H])Oc2ccc(Nc3nc(-c4c(C)nc5ccccn45)cs3)cc2O1 [Compound 17, hydrochloride] | 0

---

PROTOCOL NOTES: Plasma pharmacokinetics and brain distribution after single IV, IP and oral administration
Type: in vivo
EXPERIMENTAL CONDITIONS: male, C57BL/6, mouse, brain, po, 10 mg/kg, PO 10 mg/kg, 1 hr; read-out: Brain-to-plasma ratio
Method: The objective of this study was to investigate the plasma pharmacokinetics and brain distribution of Compound (14 in male C57BL/6 mice following a single intravenous, intraperitoneal and oral administration. A group of sixty-three male mice were divided into three groups (Group 1: 2 mg/kg/IV; Group 2: 10 mg/kg/IP and Group 3: 10 mg/kg/PO) with each group comprising of twenty-one mice. […]
Counter-ions that a name gives are not always drawn.
TEST READOUT: Kp at 1 h

MOLECULE | OBSERVED RESULT
Cc1nc2ccccn2c1-c1csc(Nc2ccc3c(c2)OC(F)(F)O3)n1 [Compound 16, hydrochloride] | 1.67
[2H]C([2H])([2H])Oc1ccc(Nc2nc(-c3c(C)nc4ccccn34)cs2)cc1 [Compound 15, hydrochloride] | 1.03
[2H]C1([2H])Oc2ccc(Nc3nc(-c4c(C)nc5ccccn45)cs3)cc2O1 [Compound 17, hydrochloride] | 0.48
